Assay: qHTS for Inhibitors of the vitamin D receptor (VDR): Hit Validation using a Texas Red Assay (AID 602201)
Details: VDR coregulator binding, Texas Red fluorescence polarization, agonist-bound VDR ligand-binding domain; series mostly up to 57.1 µM
Description: The vitamin D receptor (VDR) is a ligand-activated transcription factor and is partially responsible for the regulation of the endocrine system. […] In a collaboration between the University of Wisconsin, Milwaukee and the NIH Chemical Genomics Center (NCGC) a HTS-compatible enzymatic assay was developed. The assay uses fluorescence polarization as its read-out to measure the inhibition between VDR and coregulator peptide SRC2-3 exerted by small molecules. […]
Inconclusive results are not listed. The source made the active and inactive calls. Calls follow the shape of the dose curve; as a rule, active = well fitted curve in the direction sought with a large enough effect; inconclusive = small, poorly fitted or top-dose-only effect, or another doubt; inactive = no such curve, though single readings can be large or run the other way.
Choose one outcome from this list and give only that: active, inactive

Consider the following illustrative entries.
Compound: COc1ccc(OC)c(/C=C/C(=O)c2ccc(Cl)cc2)c1
Category: active

Compound: CC(C)c1ccc(/C=C/c2[nH]c(=O)[nH]c(=O)c2[N+](=O)[O-])cc1
Category: inactive

Compound: O=C1C=C(c2ccccc2)C(=O)N1Nc1ccccc1
Category: active

Compound: O=c1[nH]c(/C=C/c2ccc(Cl)cc2Cl)c([N+](=O)[O-])c(=O)[nH]1
Category: inactive

Problem: Which result was noted for this compound in the test: "CCOc1ccc(Cl)cc1/C=C1/C(=O)ON=C1C"
Result: active

Problem: Which result was noted for this compound in the test: "N#Cc1ccc(/C=C/C(=O)c2cccnc2)cc1"
Result: inactive

Problem: Which result was noted for this compound in the test: "Cc1ccc(NN2C(=O)C=C(c3ccccc3)C2=O)cc1"
Result: inactive

Problem: Which result was noted for this compound in the test: "NS(=O)(=O)c1ccc(NC(=O)c2nc(S(=O)(=O)Cc3ccccc3F)ncc2Cl)cc1"
Result: active

Problem: Which result was noted for this compound in the test: "Nc1ncnc2c1ncn2[C@@H]1O[C@H](CNCc2ccc(-c3cc(C(F)(F)F)ccc3Cl)o2)[C@@H](O)[C@H]1O"
Result: inactive
